# Tested target: PDE4
# Assay remarks: Inhibition of PDE4, radioenzymatic phosphodiesterase assay
# Format: biochemical, bovine
# Cond: Table 2, formula (XXII); 1 μM cyclic AMP
pIC50: −log10 of the molar value.
Use satisfied when the recorded pIC50 is no lower than 5; use not satisfied when it is lower.

State whether the measured pIC50 reaches 5, counting equality as reaching it, for CCOc1cc2c(cc1OC)C(c1ccccc1)=NC(Cc1ccccc1)C(=O)N2 (stereo not drawn)
not satisfied

State whether the measured pIC50 reaches 5, counting equality as reaching it, for CCOc1cc2c(cc1OC)C(c1ccccc1)=NC(c1ccccc1)C(=O)N2 (stereo not drawn)
satisfied

State whether the measured pIC50 reaches 5, counting equality as reaching it, for CCOc1cc2c(cc1OCC)C(c1ccccc1)=NCC(=O)N2
satisfied

State whether the measured pIC50 reaches 5, counting equality as reaching it, for CCOc1cc2c(cc1OCC)C(c1ccccc1)=NC(C)C(=O)N2 (stereo not drawn)
satisfied

State whether the measured pIC50 reaches 5, counting equality as reaching it, for CCOc1cc2c(cc1OCC)C(c1ccccc1)=NC(Cc1ccccc1)C(=O)N2 (stereo not drawn)
satisfied

State whether the measured pIC50 reaches 5, counting equality as reaching it, for COc1cc2c(cc1OC)C(c1ccc(Br)cc1)=NCC(=O)N2
not satisfied

State whether the measured pIC50 reaches 5, counting equality as reaching it, for CCOc1cc2c(cc1OC)C(c1ccccc1)=NCC(=O)N2
satisfied

* * *

# Tested on: PDE1
# Assay remarks: Selectivity: inhibition of PDE1, radioenzymatic phosphodiesterase assay
# Assay type: biochemical, bovine
# Parameters: unit: %
# Cond: Table 4 Selectivity; compound at 10 μM
# Experimental: A 3 g segment of bovine aortic media cut into pieces with scissors was homogenized with an ultra-turrax then a potter glass/glass homogenizer in 7 volumes by weight of buffer A containing a protease inhibitor cocktail (20 mM Tris-HCl, 0.25 M saccharose, 2 mM magnesium acetate, 1 mM dithiothreitol, 5 mM EGTA, 2000 U/ml aprotinin, 10 mg/l leupeptin and 10 mg/l soya trypsic inhibitor). The homogenizate was centrifuged at 105,000 g for 1 hour. […]
Please respond with reported PDE1 percentage inhibition at 10 μM for every item in the list.
// units = %; emit number, no label

# lookup: PDE1 percentage inhibition at 10 μM of CCOc1cc2c(cc1OCC)C(c1ccccc1)=NC(C)C(=O)N2 (stereo not drawn)
55

# lookup: PDE1 percentage inhibition at 10 μM of CCOc1cc2c(cc1OC)C(c1ccccc1)=NCC(=O)N2
29

# lookup: PDE1 percentage inhibition at 10 μM of CCOc1cc2c(cc1OC)C(c1ccccc1)=NCC(=O)N2C
26

# lookup: PDE1 percentage inhibition at 10 μM of COc1cc2c(cc1OC)C(c1ccc(-c3ccco3)cc1)=NN(C)C(=O)C2
49

# lookup: PDE1 percentage inhibition at 10 μM of CCOc1cc2c(cc1OCC)N(CC)C(=O)CN=C2c1ccccc1
47

# lookup: PDE1 percentage inhibition at 10 μM of CCOc1cc2c(cc1OCC)C(c1ccccc1)=NCC(=O)N2
46

* * *

Please respond with reported inhibition at 10 µM for every item in the list.
# Tested target: PDE2 (Bos taurus, UniProt P14099)
# Construct: PDE2 was prepared from bovine endothelial cells by the same methods; endogenous in cells; host or cells: bovine vascular endothelial cells, DEAE-Sephacel fraction
# Sequence (P14099 whole entry): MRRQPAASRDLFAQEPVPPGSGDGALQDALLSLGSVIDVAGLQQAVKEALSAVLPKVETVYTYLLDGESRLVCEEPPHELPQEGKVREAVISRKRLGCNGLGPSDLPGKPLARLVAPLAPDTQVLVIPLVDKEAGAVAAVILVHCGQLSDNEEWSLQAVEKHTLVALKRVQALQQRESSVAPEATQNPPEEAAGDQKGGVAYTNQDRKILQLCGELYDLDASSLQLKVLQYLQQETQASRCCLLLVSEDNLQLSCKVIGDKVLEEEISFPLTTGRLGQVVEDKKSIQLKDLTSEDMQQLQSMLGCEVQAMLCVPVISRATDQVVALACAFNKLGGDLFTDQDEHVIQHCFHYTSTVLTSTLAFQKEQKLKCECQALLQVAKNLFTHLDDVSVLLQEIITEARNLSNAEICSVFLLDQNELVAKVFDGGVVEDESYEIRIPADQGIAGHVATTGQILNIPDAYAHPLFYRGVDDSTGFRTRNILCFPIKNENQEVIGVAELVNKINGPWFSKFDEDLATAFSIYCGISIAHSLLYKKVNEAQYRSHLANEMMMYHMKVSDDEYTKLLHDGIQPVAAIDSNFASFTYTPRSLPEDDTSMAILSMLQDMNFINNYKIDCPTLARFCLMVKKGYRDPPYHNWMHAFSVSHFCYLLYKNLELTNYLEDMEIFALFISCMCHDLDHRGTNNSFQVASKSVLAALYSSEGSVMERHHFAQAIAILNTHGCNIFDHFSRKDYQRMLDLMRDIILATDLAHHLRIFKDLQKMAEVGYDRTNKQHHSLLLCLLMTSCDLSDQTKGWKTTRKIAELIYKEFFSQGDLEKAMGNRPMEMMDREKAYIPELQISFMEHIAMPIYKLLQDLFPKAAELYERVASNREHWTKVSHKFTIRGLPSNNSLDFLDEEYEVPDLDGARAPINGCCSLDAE
# Assay remarks: Selectivity: inhibition of PDE2, radioenzymatic phosphodiesterase assay
# Type: biochemical, bovine
# Cond: Table 4 Selectivity; compound at 10 μM; read-out: PDE2 percentage inhibition at 10 μM

# lookup: inhibition at 10 µM of CCOc1cc2c(cc1OC)C(c1ccccc1)=NCC(=O)N2
36%

# lookup: inhibition at 10 µM of CCOc1cc2c(cc1OCC)N(CC)C(=O)CN=C2c1ccccc1
20%

# lookup: inhibition at 10 µM of CCOc1cc2c(cc1OCC)C(c1ccccc1)=NCC(=O)N2
17%

# lookup: inhibition at 10 µM of CCOc1cc2c(cc1OCC)C(c1ccccc1)=NC(C)C(=O)N2 (stereo not drawn)
6%

# lookup: inhibition at 10 µM of CCOc1cc2c(cc1OCC)C(CC)C(=O)N(C)N=C2c1cc2ccccc2s1 (stereo not drawn)
25%

# lookup: inhibition at 10 µM of CCOc1cc2c(cc1OC)C(c1ccccc1)=NCC(=O)N2C
7%

The origin of these recorded values is patent US7250410B2.
